Protocol Notes: Pharmacokinetic assay in Balb/c mice (plasma and brain tissue)
Assay type: in vivo
Condition Details: mouse, po; brain tissue, 5 mg/kg p.o., male Balb/c mice; read-out: Peak time tmax
Tmax: recorded values
Value Type: Tmax (h)

Molecule: C[C@@]1(O)CC[C@H]2[C@H](CC[C@@H]3[C@@H]2CC[C@@]2(C)[C@H]3[C@H](C3CC3)C[C@@H]2C(=O)Cn2ccc(C#N)n2)C1
Unit: h
Assay Value: 0.5

Molecule: C[C@@]1(O)CC[C@H]2[C@H](CC[C@@H]3[C@@H]2CC[C@@]2(C)[C@H]3[C@@H]3C[C@@H]3[C@@H]2C(=O)Cn2cc(C#N)cn2)C1
Unit: h
Assay Value: 0.5

Molecule: C[C@@]1(O)CC[C@H]2[C@H](CC[C@@H]3[C@@H]2CC[C@@]2(C)[C@H]3[C@@H]3C[C@@H]3[C@@H]2C(=O)Cn2cc([N+](=O)[O-])cn2)C1
Unit: h
Assay Value: 1

Molecule: C[C@@]1(O)CC[C@H]2[C@H](CC[C@@H]3[C@@H]2CC[C@]2(C)C(C(=O)Cn4cc(C#N)cn4)C[C@@H](C4CC4)[C@@H]32)C1 (stereo partly shown)
Unit: h
Assay Value: 1

Molecule: CC[C@@H]1C[C@H](C(=O)Cn2nccn2)[C@@]2(C)CC[C@H]3[C@@H](CC[C@@H]4C[C@](C)(O)CC[C@@H]43)[C@H]12
Unit: h
Assay Value: 0.5

Molecule: C[C@@]1(O)CC[C@H]2[C@H](CC[C@@H]3[C@@H]2CC[C@@]2(C)[C@H]3[C@@H]3C[C@@H]3[C@@H]2C(=O)Cn2ccc(C#N)n2)C1
Unit: h
Assay Value: 0.5

Molecule: C[C@@H]1C[C@H](C(=O)Cn2cc(C(F)(F)F)cn2)[C@@]2(C)CC[C@H]3[C@@H](CC[C@@H]4C[C@](C)(O)CC[C@@H]43)[C@H]12
Unit: h
Assay Value: 1

Molecule: CC[C@@H]1C[C@H](C(=O)Cn2cc(C#N)cn2)[C@@]2(C)CC[C@H]3[C@@H](CC[C@@H]4C[C@](C)(O)CC[C@@H]43)[C@H]12
Unit: h
Assay Value: 1

Molecule: C[C@@H]1C[C@H](C(=O)Cn2ccc(C#N)n2)[C@@]2(C)CC[C@H]3[C@@H](CC[C@@H]4C[C@](C)(O)CC[C@@H]43)[C@H]12
Unit: h
Assay Value: 1

Molecule: C[C@@H]1C[C@H](C(=O)Cn2cc(C#N)cn2)[C@@]2(C)CC[C@H]3[C@@H](CC[C@@H]4C[C@](C)(O)CC[C@@H]43)[C@H]12
Unit: h
Assay Value: 1
